- System under test: hCRBN (NanoLuc-CRBN fusion construct in HEK-293 cells) (Homo sapiens)
- Sequence (Q96SW2 whole entry, the tested form may be a part): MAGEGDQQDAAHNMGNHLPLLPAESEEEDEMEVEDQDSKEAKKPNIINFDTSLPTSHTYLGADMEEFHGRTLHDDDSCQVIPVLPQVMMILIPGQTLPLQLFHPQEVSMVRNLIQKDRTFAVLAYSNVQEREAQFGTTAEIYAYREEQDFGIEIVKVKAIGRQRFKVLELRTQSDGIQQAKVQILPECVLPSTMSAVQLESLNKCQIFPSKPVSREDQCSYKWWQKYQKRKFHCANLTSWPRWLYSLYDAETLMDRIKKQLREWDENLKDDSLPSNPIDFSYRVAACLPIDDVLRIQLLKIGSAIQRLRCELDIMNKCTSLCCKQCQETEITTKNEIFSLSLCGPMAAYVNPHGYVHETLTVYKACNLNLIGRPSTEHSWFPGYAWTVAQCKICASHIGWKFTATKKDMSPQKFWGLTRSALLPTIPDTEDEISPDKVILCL
- Assay details: CRBN BRET Target Engagement
- Recorded conditions: NanoLuc-CRBN transfected HEK-293 cells, BRET with CRBN Probe
Give pIC50 for every item shown.
Hey, just a heads up that pIC50 is the negative log base 10 of the concentration in molar.

# input For Cc1nc([C@@H]2O[C@H](CO)[C@H](O)[C@H](n3cc(-c4cc(F)c(Cl)c(F)c4)nn3)[C@H]2OCCOc2ccc(C(=O)Nc3ccc4c(c3)CN(C3CCC(=O)NC3=O)C4=O)cc2)n(-c2cc(Cl)ccc2C(F)(F)F)n1 (stereo partly shown) , what is its reported pIC50?
# output 5.57

# input Next entry: Cc1nc([C@@H]2O[C@H](CO)[C@H](O)[C@H](n3cc(-c4cc(F)c(Cl)c(F)c4)nn3)[C@H]2OCC(=O)N2CC(COc3ccc(C(=O)Nc4ccc5c(c4)CN(C4CCC(=O)NC4=O)C5=O)cc3)C2)n(-c2cc(Cl)ccc2C(F)(F)F)n1 (stereo partly shown)
# output 6.22

# input Can you handle Cc1nc([C@@H]2O[C@H](CO)[C@H](O)[C@H](n3cc(-c4cc(F)c(Cl)c(F)c4)nn3)[C@H]2OCC(=O)N(CCl)CCCOc2ccc(C(=O)Nc3ccc4c(c3)CN(C3CCC(=O)NC3=O)C4=O)cc2)n(-c2cc(Cl)ccc2C(F)(F)F)n1 (stereo partly shown) next?
# output 5.67

# input Queued: Cc1nc([C@@H]2O[C@H](CO)[C@H](O)[C@H](n3cc(-c4cc(F)c(Cl)c(F)c4)nn3)[C@H]2OCC(=O)N2CC(COc3ccc(C(=O)Nc4cccc5c4CN(C4CCC(=O)NC4=O)C5=O)nc3)C2)n(-c2cc(Cl)ccc2C(F)(F)F)n1 (stereo partly shown)
# output 4.86

---

- System under test: hCRBN (NanoLuc-CRBN fusion construct in HEK-293 cells) (Homo sapiens)
- Assay details: CRBN BRET Target Engagement
- Recorded conditions: NanoLuc-CRBN transfected HEK-293 cells, BRET with CRBN Probe
hey, just use condition met if measured IC50 is less than 300 nM, otherwise condition not met

# input hey, is IC50 for Cc1nc([C@@H]2O[C@H](CO)[C@H](O)[C@H](n3cc(-c4cc(F)c(Cl)c(F)c4)nn3)[C@H]2OCC(=O)N2CC(COc3ccc(C(=O)Nc4ccc5c(c4)CN(C4CCC(=O)NC4=O)C5=O)nc3)C2)n(-c2cc(Cl)ccc2C(F)(F)F)n1 (some centres unmarked) lower than 300 nM or not?
# output condition met

# input Then what about the compound Cc1nc([C@@H]2O[C@H](CO)[C@H](O)[C@H](n3cc(-c4cc(F)c(Cl)c(F)c4)nn3)[C@H]2OCC(=O)NCCOCCOCCNC(=O)c2ccc3c(c2)C(=O)N(C2CCC(=O)N(C)C2=O)C3=O)n(-c2cc(Cl)ccc2C(F)(F)F)n1 (some centres unmarked) ?
# output condition not met

# input Input Cc1nc([C@@H]2O[C@H](CO)[C@H](O)[C@H](n3cc(-c4cc(F)c(Cl)c(F)c4)nn3)[C@H]2OCC(=O)NCCOCCOCCOCCNC(=O)c2ccc3c(c2)C(=O)N(C2CCC(=O)NC2=O)C3=O)n(-c2cc(Cl)ccc2C(F)(F)F)n1 (some centres unmarked)
# output condition not met

# input Then this compound: Cc1nc([C@@H]2O[C@H](CO)[C@H](O)[C@H](n3cc(-c4cc(F)c(Cl)c(F)c4)nn3)[C@H]2OCC(=O)N[C@H]2C[C@H](Oc3ccc(C(=O)Nc4ccc5c(c4)CN(C4CCC(=O)N(C)C4=O)C5=O)cc3)C2)n(-c2cc(Cl)ccc2C(F)(F)F)n1 (some centres unmarked)
# output condition not met

# input What do you have for Cc1nc([C@@H]2O[C@H](CO)[C@H](O)[C@H](n3cc(-c4cc(F)c(Cl)c(F)c4)nn3)[C@H]2OCC(=O)N2CC(Oc3ccc(C(=O)Nc4ccc5c(c4)CN(C4CCC(=O)NC4=O)C5=O)nc3)C2)n(-c2cc(Cl)ccc2C(F)(F)F)n1 (some centres unmarked) ?
# output condition not met

# input Field entry: Cc1nc([C@@H]2O[C@H](CO)[C@H](O)[C@H](n3cc(-c4cc(F)c(Cl)c(F)c4)nn3)[C@H]2OCC(=O)N[C@H]2C[C@H](Oc3ccc(C(=O)Nc4ccc5c(c4)CN(C4CCC(=O)NC4=O)C5=O)nc3)C2)n(-c2cc(Cl)ccc2C(F)(F)F)n1 (some centres unmarked)
# output condition met

# input Again, but for Cc1nc([C@@H]2O[C@H](CO)[C@H](O)[C@H](n3cc(-c4cc(F)c(Cl)c(F)c4)nn3)[C@H]2OCC(=O)N2CC3(CC(Oc4ccc(C(=O)Nc5ccc6c(c5)CN(C5CCC(=O)NC5=O)C6=O)cc4)C3)C2)n(-c2cc(Cl)ccc2C(F)(F)F)n1 (some centres unmarked)
# output condition not met

# input Queued: Cc1nc([C@@H]2O[C@H](CO)[C@H](O)[C@H](n3cc(-c4cc(F)c(Cl)c(F)c4)nn3)[C@H]2OCC(=O)N[C@H]2C[C@@H](Oc3ccc(C(=O)Nc4ccc5c(c4)CN(C4CCC(=O)NC4=O)C5=O)cc3)C2)n(-c2cc(Cl)ccc2C(F)(F)F)n1 (some centres unmarked)
# output condition met

---

- System under test: His-tagged recombinant human Gal-3 (hGal-3) (Homo sapiens)
- Assay details: Gal-3 HTRF assay (His-tagged hGal-3 / B-ASF)
- Recorded conditions: 15 nM hGal-3, 15 nM B-ASF
Provide the reported IC50 of each item.
Give the number; nM is assumed, so skip it.

# input # get_value(readout= IC50, system= His-tagged recombinant human Gal-3 (hGal-3) (Homo sapiens)) for Cc1nc([C@@H]2O[C@H](CO)[C@H](O)[C@H](n3cc(-c4cc(F)c(Cl)c(F)c4)nn3)[C@H]2OCC(=O)N2CC(COc3ccc(C(=O)Nc4ccc5c(c4)CN(C4CCC(=O)NC4=O)C5=O)cc3)C2)n(-c2cc(Cl)ccc2C(F)(F)F)n1 (some centres unmarked)
# output 56

# input Could you do the same for Cc1nc([C@@H]2O[C@H](CO)[C@H](O)[C@H](n3cc(-c4cc(F)c(Cl)c(F)c4)nn3)[C@H]2OCC(=O)N(CCl)CCCOc2ccc(C(=O)Nc3ccc4c(c3)CN(C3CCC(=O)NC3=O)C4=O)cc2)n(-c2cc(Cl)ccc2C(F)(F)F)n1 (some centres unmarked) , please?
# output 212

---

- System under test: His-tagged recombinant human Gal-3 (hGal-3) (Homo sapiens, UniProt P17931)
- Sequence (P17931 whole entry): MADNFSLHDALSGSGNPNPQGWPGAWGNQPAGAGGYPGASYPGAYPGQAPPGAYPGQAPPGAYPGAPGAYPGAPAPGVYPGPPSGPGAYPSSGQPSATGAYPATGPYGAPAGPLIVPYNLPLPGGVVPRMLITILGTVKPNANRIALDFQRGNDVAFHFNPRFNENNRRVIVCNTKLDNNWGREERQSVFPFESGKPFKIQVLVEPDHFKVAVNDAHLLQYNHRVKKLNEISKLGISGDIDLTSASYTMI
- Assay details: Gal-3 HTRF assay (His-tagged hGal-3 / B-ASF)
- Recorded conditions: 15 nM hGal-3, 15 nM B-ASF
Just a reminder that ties go to Not satisfied: only IC50 strictly below 0.1 µM counts as Satisfied.

# input hey, is IC50 for Cc1nc([C@@H]2O[C@H](CO)[C@H](O)[C@H](n3cc(-c4cc(F)c(Cl)c(F)c4)nn3)[C@H]2OCC(=O)NCCOCC(=O)NCc2ccc(S(=O)(=O)Nc3ccc(C)c4c(C#N)c[nH]c34)cc2)n(-c2cc(Cl)ccc2C(F)(F)F)n1 [Example 22] lower than 0.1 µM or not?
# output Not satisfied

# input Same question, Cc1nc([C@@H]2O[C@H](CO)[C@H](O)[C@H](n3cc(-c4cc(F)c(Cl)c(F)c4)nn3)[C@H]2OCC(=O)N2CC(Oc3ccc(C(=O)Nc4ccc5c(c4)CN(C4CCC(=O)NC4=O)C5=O)nc3)C2)n(-c2cc(Cl)ccc2C(F)(F)F)n1 (some centres unmarked) [Example 35] this time
# output Satisfied

# input Try the compound Cc1nc([C@@H]2O[C@H](CO)[C@H](O)[C@H](n3cc(-c4cc(F)c(Cl)c(F)c4)nn3)[C@H]2OCC(=O)N[C@H]2C[C@H](Oc3ccc(C(=O)Nc4ccc5c(c4)CN(C4CCC(=O)NC4=O)C5=O)cc3)C2)n(-c2cc(Cl)ccc2C(F)(F)F)n1 (some centres unmarked) [Example 15]
# output Not satisfied

# input Request: Cc1nc([C@@H]2O[C@H](CO)[C@H](O)[C@H](n3cc(-c4cc(F)c(Cl)c(F)c4)nn3)[C@H]2OCC(=O)N2CC(Oc3ccc(C(=O)Nc4ccc5c(c4)CN(C4CCC(=O)NC4=O)C5=O)cc3)C2)n(-c2cc(Cl)ccc2C(F)(F)F)n1 (some centres unmarked) [Example 8]
# output Satisfied

# input For Cc1nc([C@@H]2O[C@H](CO)[C@H](O)[C@H](n3cc(-c4cc(F)c(Cl)c(F)c4)nn3)[C@H]2OCC(=O)N2CC(COc3ccc(C(=O)Nc4cccc5c4CN(C4CCC(=O)NC4=O)C5=O)nc3)C2)n(-c2cc(Cl)ccc2C(F)(F)F)n1 (some centres unmarked) [Example 32] then?
# output Satisfied

# input Another compound: Cc1nc([C@@H]2O[C@H](CO)[C@H](O)[C@H](n3cc(-c4cc(F)c(Cl)c(F)c4)nn3)[C@H]2OCC(=O)NCCOCCOCCOCCNC(=O)c2ccc3c(c2)C(=O)N(C2CCC(=O)NC2=O)C3=O)n(-c2cc(Cl)ccc2C(F)(F)F)n1 (some centres unmarked) [Example 13]
# output Satisfied

# input Now give it for Cc1nc([C@@H]2O[C@H](CO)[C@H](O)[C@H](n3cc(-c4cc(F)c(Cl)c(F)c4)nn3)[C@H]2OCCOc2ccc(C(=O)Nc3ccc4c(c3)CN(C3CCC(=O)NC3=O)C4=O)cc2)n(-c2cc(Cl)ccc2C(F)(F)F)n1 (some centres unmarked) [Example 25] too.
# output Not satisfied

# input # iterate: Cc1nc([C@@H]2O[C@H](CO)[C@H](O)[C@H](n3cc(-c4cc(F)c(Cl)c(F)c4)nn3)[C@H]2OCC(=O)N[C@H]2C[C@H](Oc3ccc(C(=O)Nc4ccc5c(c4)CN(C4CCC(=O)N(C)C4=O)C5=O)cc3)C2)n(-c2cc(Cl)ccc2C(F)(F)F)n1 (some centres unmarked) [Example 17]
# output Not satisfied
